# assay target: T1, biotinylated APRIL (Homo sapiens (Human), UniProt O75888 105-250, biotinylated using NHS-biotin at a molar ratio of 20:1 biotin:APRIL)
# T1 construct: also called bio-APRIL
# T1 sequence: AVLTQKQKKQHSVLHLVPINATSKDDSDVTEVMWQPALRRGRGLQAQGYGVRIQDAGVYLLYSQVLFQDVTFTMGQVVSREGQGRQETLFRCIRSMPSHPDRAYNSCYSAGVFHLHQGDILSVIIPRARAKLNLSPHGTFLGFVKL
# assay protocol: scFv inhibition of bio-APRIL (5 ng/ml) binding to coated BCMA fusion protein, streptavidin-DELFIA
pIC50: −log10 of the molar value.
measurement name: pIC50

binder="A053H04 (scFv) scFv: EVQLVQSGAEVKKPGSSVKVSCKASGGTFSNYAISWVRQAPGQGLEWMGGIIPLFDTPNYAQKFQGRVTITADESTSTAYMELSSLRSEDTAVYYCARGNTGPRPFDPWGKGTTVTVSSGGGGSGGGGSGGGGSAQAVLTQPSSVSGAPGQRVTVSCTGSSSNIGAGYEVNWYQQLPGTAPKLLIYGDTNRPSGVPDRFSGSKSGTSASLAITGLQAEDEANYYCQSYDSGPGGPVVFGGGTKLTVLG" result=7.60
